Recorded IC50, one value per entry.
- measuredTarget: β′–σ^70 PPI (GST-β′ aa 1–334 / His-tagged σ^70) (Escherichia coli, UniProt P0A8T7)
- Construct: 50 nM GST-β′ (aa 1–334)
- Sequence (P0A8T7 1-334): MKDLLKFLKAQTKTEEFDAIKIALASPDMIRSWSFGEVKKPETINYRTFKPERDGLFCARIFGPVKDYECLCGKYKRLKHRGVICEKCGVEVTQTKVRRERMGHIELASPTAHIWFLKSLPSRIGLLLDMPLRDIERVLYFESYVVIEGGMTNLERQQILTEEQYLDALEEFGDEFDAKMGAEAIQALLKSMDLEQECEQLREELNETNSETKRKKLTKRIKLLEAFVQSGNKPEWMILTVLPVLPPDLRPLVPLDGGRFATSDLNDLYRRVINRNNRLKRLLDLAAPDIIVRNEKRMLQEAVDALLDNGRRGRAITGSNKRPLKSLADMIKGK
- testDetails: Competitive ELISA of β′–σ^70 interaction
- conditionLabel: dose–response ELISA; read-out: Binding Inhibition IC50 ± SD

[
  {
    "molecule": "COc1ccc(-c2ccc(-c3oc4cc(OC(C)=O)ccc4c3OC(C)=O)cc2)cc1OC [Compound 9]",
    "IC50 (µM)": 13.9
  },
  {
    "molecule": "O=C(CSc1nc2ccccc2[nH]1)c1ccc2[nH]c3ncc(Cl)cc3c2c1 [Compound 19]",
    "IC50 (µM)": 40
  },
  {
    "molecule": "N#Cc1cc2cnccc2c2[nH]c3ncc(F)cc3c12 [Compound 7]",
    "IC50 (µM)": 8.56
  }
]
